Assay: Lipophilicity LogP (experimental)
Assay type: physicochemical
Settings: mean of three experiments (SD)

{"MOLECULE": "C=CCSC[C@H](NC(C)=O)C(=O)Oc1cc(C(C)C)ccc1C", "logP": 1.21}

====

Tested on: C. albicans ATCC 10231
Assay: Broth microdilution MIC/MFC
Format: cell-based
Details: Candida albicans, ATCC10231; C. albicans ATCC 10231, 24–48 h at 37°C; read-out: MIC
Structures can show the parent of a compound that is named as a salt.
# MIC per record follows

{"COMPOUND": "C[Se]CC[C@H](NC(C)=O)C(=O)Oc1cc(C(C)C)ccc1C [codrug 6, N-Ac-Met(Se)-CAR]", "ENDPOINT_UNIT": "µg/mL", "MIC": 150}
{"COMPOUND": "CC(=O)N[C@@H](CS)C(=O)O [NAC, N-Acetyl-cysteine, reference compound]", "ENDPOINT_UNIT": "µg/mL", "MIC": 20000}
{"COMPOUND": "Cc1ccc(C(C)C)cc1OC(=O)[C@@H]1CSC(=O)N1 [codrug 10, OTC-CAR]", "ENDPOINT_UNIT": "µg/mL", "MIC": 2500}
{"COMPOUND": "Cc1ccc(C(C)C)cc1OC(=O)[C@@H]1CSCN1 [codrug 8, TFA·TCA-CAR]", "ENDPOINT_UNIT": "µg/mL", "MIC": 600}
{"COMPOUND": "C=CCSC[C@H](NC(C)=O)C(=O)Oc1cc(C(C)C)ccc1C [codrug 4, N-Ac-Cys(Allyl)-CAR]", "ENDPOINT_UNIT": "µg/mL", "MIC": 1250}
{"COMPOUND": "CSC[C@H](NC(C)=O)C(=O)Oc1cc(C(C)C)ccc1C [codrug 2, N-Ac-Cys(Methyl)-CAR]", "ENDPOINT_UNIT": "µg/mL", "MIC": 5000}
{"COMPOUND": "C=CCSC[C@H](NC(C)=O)C(=O)O [Ac-Cys(Allyl)-OH, N-Ac-Cys(Allyl)-OH]", "ENDPOINT_UNIT": "µg/mL", "MIC": 2500}
{"COMPOUND": "CSCC[C@H](NC(C)=O)C(=O)Oc1cc(C(C)C)ccc1C [codrug 5, N-Ac-Met-CAR]", "ENDPOINT_UNIT": "µg/mL", "MIC": 5000}

====

Assay: Kinetics of chemical hydrolysis in buffers
Type: physicochemical
Details: phosphate buffer pH 7.4 (non-enzymatic SIF), pH 7.4, 37°C, read-out: t½ (converted)
QUANTITY_KIND: half-life at 9.1 µM (h)

{"MOLECULE": "C=CCSC[C@H](NC(C)=O)C(=O)Oc1cc(C(C)C)ccc1C", "MEASURED": 22.9}

====

Tested on: C. albicans ATCC 10231
Experiment: Broth microdilution MIC/MFC
Format: cell-based
Conditions: Candida albicans, ATCC10231; C. albicans ATCC 10231, 24–48 h at 37°C; read-out: MIC
QUANTITY_KIND: MIC

{"COMPOUND": "CCSC[C@H](NC(C)=O)C(=O)Oc1cc(C(C)C)ccc1C [codrug 3, N-Ac-Cys(Ethyl)-CAR]", "STUDY_SYSTEM": "C. albicans ATCC 10231", "MEASURED": "2500 µg/mL"}
{"COMPOUND": "Cc1ccc(C(C)C)cc1OC(=O)CCCC[C@@H]1CCSS1 [codrug 7, LA-CAR]", "STUDY_SYSTEM": "C. albicans ATCC 10231", "MEASURED": "2500 µg/mL"}
{"COMPOUND": "C#CCSC[C@H](NC(C)=O)C(=O)Oc1cc(C(C)C)ccc1C [codrug 9, N-Ac-Cys(Propargyl)-CAR]", "STUDY_SYSTEM": "C. albicans ATCC 10231", "MEASURED": "1250 µg/mL"}
{"COMPOUND": "CC(=O)N[C@@H](CS)C(=O)Oc1cc(C(C)C)ccc1C [codrug 1, NAC-CAR]", "STUDY_SYSTEM": "C. albicans ATCC 10231", "MEASURED": "300 µg/mL"}

====

Experiment: Kinetics of enzymatic hydrolysis in plasma
Type: in vitro ADME
Conditions: pH 7.4; 80% rat plasma, 37°C; read-out: t½ (converted)
QUANTITY_KIND: half-life at 40 µg/mL (min)

{"MOLECULE": "C=CCSC[C@H](NC(C)=O)C(=O)Oc1cc(C(C)C)ccc1C", "MEASURED": 30}

====

Assay: PAMPA-GI permeability
Assay type: in vitro ADME
Conditions: pH 7.4 in donor and acceptor, 16 h of incubation (table title), 2% Tween 80, 10% MeOH, read-out: PAMPA-GI permeability P e
Procedure: Parallel Artificial Membrane Permeability Assay (PAMPA) was used to measure the permeability coefficient (P e) of codrug 4 through the artificial membrane to predict oral absorption. The carvacrol codrug 4 permeability was determined using PAMPA-GI protocols already developed. Briefly, donor and acceptor plates were assembled to form a “sandwich” and incubated at room temperature for 18 h. […]

{"MOLECULE": "C=CCSC[C@H](NC(C)=O)C(=O)Oc1cc(C(C)C)ccc1C", "Papp at 16 h": "2.34 ×10⁻⁶ cm/s"}

====

Test: Drug stability in simulated gastric fluid with pepsin
Format: in vitro ADME
Conditions: simulated gastric fluid with pepsin 10 mg/mL, pH 1.3, SGF pH 1.3, pepsin 10 mg/mL, 37°C; read-out: t½ (converted)

{"MOLECULE": "C=CCSC[C@H](NC(C)=O)C(=O)Oc1cc(C(C)C)ccc1C", "half-life at 8.3 µM": "> 3.08 days"}

====

Test system: P. aeruginosa ATCC 9027
Experiment: Broth microdilution MIC/MBC on planktonic cells
Format: cell-based
Conditions: Pseudomonas aeruginosa, ATCC9027; P. aeruginosa ATCC 9027, 24 h at 37°C; read-out: MIC
Structures can show the parent of a compound that is named as a salt.
Each entry below lists one item and its recorded MIC value.

{"COMPOUND": "Cc1ccc(C(C)C)cc1OC(=O)[C@@H]1CSCN1 [codrug 8, TFA·TCA-CAR]", "ENDPOINT_UNIT": "µg/mL", "MIC": 10000}
{"COMPOUND": "C#CCSC[C@H](NC(C)=O)C(=O)Oc1cc(C(C)C)ccc1C [codrug 9, N-Ac-Cys(Propargyl)-CAR]", "ENDPOINT_UNIT": "µg/mL", "MIC": 10000}
{"COMPOUND": "Cc1ccc(C(C)C)cc1OC(=O)[C@@H]1CSC(=O)N1 [codrug 10, OTC-CAR]", "ENDPOINT_UNIT": "µg/mL", "MIC": 10000}
{"COMPOUND": "C=CCSC[C@H](NC(C)=O)C(=O)Oc1cc(C(C)C)ccc1C [codrug 4, N-Ac-Cys(Allyl)-CAR]", "ENDPOINT_UNIT": "µg/mL", "MIC": 5000}
{"COMPOUND": "Cc1ccc(C(C)C)cc1OC(=O)CCCC[C@@H]1CCSS1 [codrug 7, LA-CAR]", "ENDPOINT_UNIT": "µg/mL", "MIC": 5000}
{"COMPOUND": "CCSC[C@H](NC(C)=O)C(=O)Oc1cc(C(C)C)ccc1C [codrug 3, N-Ac-Cys(Ethyl)-CAR]", "ENDPOINT_UNIT": "µg/mL", "MIC": 10000}
{"COMPOUND": "CSCC[C@H](NC(C)=O)C(=O)Oc1cc(C(C)C)ccc1C [codrug 5, N-Ac-Met-CAR]", "ENDPOINT_UNIT": "µg/mL", "MIC": 5000}
{"COMPOUND": "CSC[C@H](NC(C)=O)C(=O)Oc1cc(C(C)C)ccc1C [codrug 2, N-Ac-Cys(Methyl)-CAR]", "ENDPOINT_UNIT": "µg/mL", "MIC": 10000}

====

Test: Kinetics of chemical hydrolysis in buffers
Type: physicochemical
Settings: aqueous buffer pH 5.0, pH 5.0, 37°C, read-out: t½ (converted)
Description: The HPLC system consisted of a Waters 600 HPLC pump (Waters Corporation, Milford, MA, USA), equipped with a Waters 2996 photodiode array detector. The column was a Kinetex RP-C8 column (3.0 x 150 mm, 5 μm). […] […] At appropriate time intervals, samples of 20 μL were withdrawn and analyzed by HPLC. Pseudo-first-order rate constants (kobs) for the hydrolysis of the compounds were then calculated from the slopes of the linear plots of log (% residual compound) against time. […]

{"MOLECULE": "C=CCSC[C@H](NC(C)=O)C(=O)Oc1cc(C(C)C)ccc1C [codrug 4, N-Ac-Cys(Allyl)-CAR]", "half-life at 9.1 µM": "62.1 h"}

====

Experiment: Drug stability in simulated intestinal fluid with pancreatin
Format: in vitro ADME
Conditions: simulated intestinal fluid with pancreatin 40 mg/mL, pH 7.4, SIF pH 7.4, pancreatin 40 mg/mL, 37°C; read-out: t½ (converted)
QUANTITY_KIND: half-life at 8.3 µM

{"COMPOUND": "C=CCSC[C@H](NC(C)=O)C(=O)Oc1cc(C(C)C)ccc1C [codrug 4, N-Ac-Cys(Allyl)-CAR]", "QUANTITY_KIND": "half-life at 8.3 µM", "MEASURED": "~1 h"}

Recorded values, source paper PMC4393269.
